# protocolDescription: Test 2: Stability test against kidney dehydrogenase DHP-I
# Type: in vitro ADME, pig
# recordedConditions: kidney dhp-i enzyme; 120 minutes; pig kidney enzyme, 10 mM phosphate buffer, 37° C.; read-out: percentage of the remaining amount (stability on DHP-I enzyme)

{"columns": ["compound", "remaining at 2 h [%]"],
 "data": [
  ["C[C@@H](O)[C@H]1C(=O)N2C(C(=O)O)=C(S[C@@H]3CN[C@H](CSCC(=O)NCC#N)C3)[C@H](C)[C@H]12", 97.2],
  ["C[C@@H](O)[C@H]1C(=O)N2C(C(=O)O)=C(SCCN=CN)C[C@H]12 [Imipenem, hydrate, reference compound]", 66.6],
  ["C[C@@H](O)[C@H]1C(=O)N2C(C(=O)O)=C(S[C@@H]3CN[C@H](CSCCC(=O)NCCO)C3)[C@H](C)[C@H]12", 97],
  ["C[C@@H](O)[C@H]1C(=O)N2C(C(=O)O)=C(S[C@@H]3CN[C@H](CSCCC(=O)NCC#N)C3)[C@H](C)[C@H]12", 96.3],
  ["C[C@@H](O)[C@H]1C(=O)N2C(C(=O)O)=C(S[C@@H]3CN[C@H](CSCCC(=O)NCC(N)=O)C3)[C@H](C)[C@H]12", 98.8]
]}

====

# protocolDescription: Test 2: Stability test against kidney dehydrogenase DHP-I
# Assay type: in vitro ADME, pig
# recordedConditions: pig, kidney dhp-i enzyme; within about 2 hours from beginning of mixing incubation; read-out: decomposition ("was composed by about 40%")

{"columns": ["compound", "metabolised at 2 h"],
 "data": [
  ["C[C@@H](O)[C@H]1C(=O)N2C(C(=O)O)=C(SCCN=CN)C[C@H]12 [Imipenem, hydrate, reference compound]", "~40%"]
]}

====

Each entry below carries its recorded remaining at 80 min.
# protocolDescription: Test 2: Stability test against kidney dehydrogenase DHP-I
# Type: in vitro ADME, pig
# recordedConditions: kidney dhp-i enzyme; 80 minutes; pig kidney enzyme, 10 mM phosphate buffer, 37° C.; read-out: percentage of the remaining amount (stability on DHP-I enzyme)
# Protocol: Test 2: Stability Test Against kidney Dehydrogenase DHP-I Each of the novel compounds of Examples 1,2,3 and 4 of the present invention and the comparative compound imipenem was dissolved in 10 mM phosphate buffer and the resulting solution was mixed with dehydrogenase enzyme solution extracted from pig kidney in a ratio of equivalent amounts. The resulting mixture was incubated at 37° C. for 2 hours, during which the decomposition degree of the compound was measured. […]

{"columns": ["molecule", "remaining at 80 min [%]"],
 "data": [
  ["C[C@@H](O)[C@H]1C(=O)N2C(C(=O)O)=C(S[C@@H]3CN[C@H](CSCCC(=O)NCC#N)C3)[C@H](C)[C@H]12", 96.3],
  ["C[C@@H](O)[C@H]1C(=O)N2C(C(=O)O)=C(S[C@@H]3CN[C@H](CSCCC(=O)NCCO)C3)[C@H](C)[C@H]12", 97.2],
  ["C[C@@H](O)[C@H]1C(=O)N2C(C(=O)O)=C(S[C@@H]3CN[C@H](CSCC(=O)NCC#N)C3)[C@H](C)[C@H]12", 97.5],
  ["C[C@@H](O)[C@H]1C(=O)N2C(C(=O)O)=C(SCCN=CN)C[C@H]12 [Imipenem, hydrate, reference compound]", 77],
  ["C[C@@H](O)[C@H]1C(=O)N2C(C(=O)O)=C(S[C@@H]3CN[C@H](CSCCC(=O)NCC(N)=O)C3)[C@H](C)[C@H]12", 98.8]
]}

====

# Tested on: Staphylococcus aureus SG 511
# protocolDescription: Test 1: In vitro antibacterial activity (MIC), Mueller Hinton Agar dilution
# Assay type: cell-based
# recordedConditions: SG511; Staphylococcus aureus SG 511; 10^6 viable cells/ml, 37° C., 18 hours; read-out: Minimal Inhibitory Concentration (MIC)
endpoint: MIC (µg/mL)

{"columns": ["molecule", "endpoint", "reportedValue"],
 "data": [
  ["C[C@@H](O)[C@H]1C(=O)N2C(C(=O)O)=C(S[C@@H]3CN[C@H](CSCCC(=O)NCC#N)C3)[C@H](C)[C@H]12 [Example 2]", "MIC", 0.05],
  ["C[C@@H](O)[C@H]1C(=O)N2C(C(=O)O)=C(S[C@@H]3CN[C@H](CSCCC(=O)NCC(N)=O)C3)[C@H](C)[C@H]12 [Example 4]", "MIC", 0.05],
  ["C[C@@H](O)[C@H]1C(=O)N2C(C(=O)O)=C(S[C@@H]3CN[C@H](CSCCC(=O)NCCO)C3)[C@H](C)[C@H]12 [Example 3]", "MIC", 0.05],
  ["C[C@@H](O)[C@H]1C(=O)N2C(C(=O)O)=C(S[C@@H]3CN[C@H](CSCC(=O)NCC#N)C3)[C@H](C)[C@H]12 [Example 1]", "MIC", 0.05]
]}

====

# protocolDescription: Test 2: Stability test against kidney dehydrogenase DHP-I
# Format: in vitro ADME, pig
# recordedConditions: kidney dhp-i enzyme; 20 minutes; pig kidney enzyme, 10 mM phosphate buffer, 37° C.; read-out: percentage of the remaining amount (stability on DHP-I enzyme)

{"columns": ["compound", "unitAbbreviation", "remaining at 20 min"],
 "data": [
  ["C[C@@H](O)[C@H]1C(=O)N2C(C(=O)O)=C(SCCN=CN)C[C@H]12 [Imipenem, hydrate, reference compound]", "%", 94.3],
  ["C[C@@H](O)[C@H]1C(=O)N2C(C(=O)O)=C(S[C@@H]3CN[C@H](CSCCC(=O)NCC#N)C3)[C@H](C)[C@H]12", "%", 98.6],
  ["C[C@@H](O)[C@H]1C(=O)N2C(C(=O)O)=C(S[C@@H]3CN[C@H](CSCC(=O)NCC#N)C3)[C@H](C)[C@H]12", "%", 99.1],
  ["C[C@@H](O)[C@H]1C(=O)N2C(C(=O)O)=C(S[C@@H]3CN[C@H](CSCCC(=O)NCC(N)=O)C3)[C@H](C)[C@H]12", "%", 99],
  ["C[C@@H](O)[C@H]1C(=O)N2C(C(=O)O)=C(S[C@@H]3CN[C@H](CSCCC(=O)NCCO)C3)[C@H](C)[C@H]12", "%", 98.9]
]}

====

Each entry below carries its recorded remaining at 5 min.
# protocolDescription: Test 2: Stability test against kidney dehydrogenase DHP-I
# Assay type: in vitro ADME, pig
# recordedConditions: kidney dhp-i enzyme; 5 minutes; pig kidney enzyme, 10 mM phosphate buffer, 37° C.; read-out: percentage of the remaining amount (stability on DHP-I enzyme)
endpoint: remaining at 5 min (%)

{"columns": ["compound", "reportedValue"],
 "data": [
  ["C[C@@H](O)[C@H]1C(=O)N2C(C(=O)O)=C(S[C@@H]3CN[C@H](CSCCC(=O)NCCO)C3)[C@H](C)[C@H]12", 99.7],
  ["C[C@@H](O)[C@H]1C(=O)N2C(C(=O)O)=C(S[C@@H]3CN[C@H](CSCC(=O)NCC#N)C3)[C@H](C)[C@H]12", 99.7],
  ["C[C@@H](O)[C@H]1C(=O)N2C(C(=O)O)=C(S[C@@H]3CN[C@H](CSCCC(=O)NCC(N)=O)C3)[C@H](C)[C@H]12", 100],
  ["C[C@@H](O)[C@H]1C(=O)N2C(C(=O)O)=C(S[C@@H]3CN[C@H](CSCCC(=O)NCC#N)C3)[C@H](C)[C@H]12", 100],
  ["C[C@@H](O)[C@H]1C(=O)N2C(C(=O)O)=C(SCCN=CN)C[C@H]12 [Imipenem, hydrate, reference compound]", 99.2]
]}

====

# protocolDescription: Test 2: Stability test against kidney dehydrogenase DHP-I
# Assay type: in vitro ADME, pig
# recordedConditions: kidney dhp-i enzyme; 10 minutes; pig kidney enzyme, 10 mM phosphate buffer, 37° C.; read-out: percentage of the remaining amount (stability on DHP-I enzyme)
endpoint: remaining at 10 min (%)

{"columns": ["compound", "reportedValue"],
 "data": [
  ["C[C@@H](O)[C@H]1C(=O)N2C(C(=O)O)=C(S[C@@H]3CN[C@H](CSCCC(=O)NCC(N)=O)C3)[C@H](C)[C@H]12", 99.8],
  ["C[C@@H](O)[C@H]1C(=O)N2C(C(=O)O)=C(S[C@@H]3CN[C@H](CSCCC(=O)NCCO)C3)[C@H](C)[C@H]12", 99.2],
  ["C[C@@H](O)[C@H]1C(=O)N2C(C(=O)O)=C(S[C@@H]3CN[C@H](CSCCC(=O)NCC#N)C3)[C@H](C)[C@H]12", 99.4],
  ["C[C@@H](O)[C@H]1C(=O)N2C(C(=O)O)=C(SCCN=CN)C[C@H]12 [Imipenem, hydrate, reference compound]", 97.9],
  ["C[C@@H](O)[C@H]1C(=O)N2C(C(=O)O)=C(S[C@@H]3CN[C@H](CSCC(=O)NCC#N)C3)[C@H](C)[C@H]12", 99.4]
]}
